IC50 values for RORc (Homo sapiens, UniProt P51449), compiled from several publications.
measured.parameter: IC50 (nM)

Please review the entries below; each comes with its answer.
- CC1(C)C2CCC1(C(=O)N1CC(N3CC[C@H](F)C3)C1)c1nnc(-c3c(F)cccc3F)cc12 (stereo in doubt): 387
- CC1(C)[C@H]2CC[C@]1(c1cnnc(N)n1)c1nnc(-c3c(F)cccc3F)cc12: 109
- CC(=O)N1CCN(c2ccc(S(=O)(=O)N(CC(C)C)c3ccccc3Cl)cc2)CC1: 99
- CN(C)S(=O)(=O)N1CCN(c2ccc(S(=O)(=O)N(Cc3ccccc3C(F)(F)F)CC(F)(F)F)cc2)CC1: 55
- CC1(C)[C@@H]2CC[C@@]1(c1cccc(C(N)=O)n1)c1nnc(-c3c(F)cccc3F)cc12: 15.6

(P) CNC(=O)c1ccc(-c2ccc(CN(CC(C)C)S(=O)(=O)Cc3ccccc3)s2)cn1
(Q) Cc1ncnn1-c1cc([C@@]23CC[C@@H](c4cc(-c5c(F)cccc5F)nnc42)C3(C)C)cnn1
Ask: Name the one with the greater IC50 value, either P or Q as given. Let me know the label of the one you choose.
Reply: P
(P: 4400 nM, Q: 317 nM)

###

// compounds with reported pIC50 on RORc (Homo sapiens), multi-publication
pIC50: −log10 of the molar value.
measured.parameter: pIC50

(A) CC1(C)[C@H]2CC[C@]1([C@@H]1CN(C(=O)c3cnco3)CCO1)c1nnc(-c3c(F)cccc3F)cc12
(B) C[C@H]1CC[C@H](c2ccccc2)S(=O)(=O)N1Cc1ccc(C2(CNC(=O)OC(C)(C)C)CCOCC2)cc1F
(C) CC1(C)[C@H]2CC[C@]1(c1ccnc(-n3nccn3)n1)c1nnc(-c3c(F)cccc3F)cc12
(D) CC1(C)[C@@H]2CC[C@@]1(C(=O)N1CC(F)(F)C1)c1nnc(-c3ccccc3F)cc12
Ask: Please rank these compounds by pIC50 in descending order. Your reply should list the labels following the order given in the request.
Reply: C, A, B, D
(C: 7.83, A: 7.13, B: 6.85, D: 5.85)

(P) CCNC(=O)N(CC)C[C@@]12CC[C@@H](c3cc(-c4c(F)cccc4F)nnc31)C2(C)C
(Q) C[C@H]1CCC(c2ccccc2)S(=O)(=O)N1Cc1ccc(-c2ccc(S(C)(=O)=O)nn2)cc1F (single isomer, unassigned)
(R) CC(=O)NCC1(c2ccc(CN3[C@@H](C)CC[C@H](c4ccccc4)S3(=O)=O)c(F)c2)CCOCC1
(S) CCOC(=O)c1nnc([C@@]23CC[C@@H](c4cc(-c5c(F)cccc5F)nnc42)C3(C)C)o1
(T) COC(=O)NCC1(c2ccc(CN3[C@@H](C)CC[C@H](c4ccccc4)S3(=O)=O)c(F)c2)CCOCC1
Ask: Sort entries by pIC50 from minimum to maximum value. Provide the labels, sequenced as the question asks.
Reply: S, Q, R, T, P
(S: 5.86, Q: 6.54, R: 6.83, T: 7.27, P: 7.68)

(A) Cn1ccc([C@@]23CC[C@@H](c4cc(-c5c(F)cccc5F)nnc42)C3(C)C)n1
(B) CC1(C)[C@H]2CC[C@]1(c1ccnc(-n3ccc(CO)n3)n1)c1nnc(-c3c(F)cccc3F)cc12
Ask: I'd appreciate it if you could identify which of A and B has the greater pIC50. Kindly state the label of the option you pick.
Reply: B
(B: 7.71, A: 6.82)
